All values here come from patent US9981916B2.

- Assay target: RORc ligand binding domain (Homo sapiens, UniProt P51449)
- Sequence (P51449 269-508 limits assumed): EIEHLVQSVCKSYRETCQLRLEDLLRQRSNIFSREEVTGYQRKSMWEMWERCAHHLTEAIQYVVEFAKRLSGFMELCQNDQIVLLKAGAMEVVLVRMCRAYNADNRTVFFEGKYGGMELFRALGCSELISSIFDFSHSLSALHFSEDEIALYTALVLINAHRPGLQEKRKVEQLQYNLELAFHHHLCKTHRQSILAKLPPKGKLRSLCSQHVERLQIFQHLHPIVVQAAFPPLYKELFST
Experimental endpoint: IC50 (nM)

> print(dat)
                                 cpd.smiles  observed.value
1  CC(=O)OC[C@]12CC[C@H](c3cc(-c4ccccc4F)nnc31)C2(C)C              45

I. Cn1nc([C@]23CC[C@H](c4cc(-c5c(F)cccc5F)nnc42)C3(C)C)oc1=O
II. CC1(C)[C@H]2CC[C@]1(c1ccon1)c1nnc(-c3c(F)cccc3F)cc12
III. CC1(C)[C@H]2CC[C@]1(CN1CC(C#N)C1)c1nnc(-c3c(F)cccc3F)cc12
Put the entries in order of IC50, starting with the largest number. // list labels; follow requested order
III, I, II
(III: 1920 nM, I: 471 nM, II: 44 nM)
